Value source: patent US20230233569A1

system-tested: NRAS G12C (Homo sapiens, UniProt P01111+P62937, G12C)
Sequence (P01111 whole entry G12C): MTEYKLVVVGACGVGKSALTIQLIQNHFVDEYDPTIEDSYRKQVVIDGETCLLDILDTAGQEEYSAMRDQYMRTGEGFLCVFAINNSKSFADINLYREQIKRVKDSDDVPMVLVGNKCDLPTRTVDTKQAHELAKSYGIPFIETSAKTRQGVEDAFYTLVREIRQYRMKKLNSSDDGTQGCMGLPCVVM
Sequence (P62937 whole entry): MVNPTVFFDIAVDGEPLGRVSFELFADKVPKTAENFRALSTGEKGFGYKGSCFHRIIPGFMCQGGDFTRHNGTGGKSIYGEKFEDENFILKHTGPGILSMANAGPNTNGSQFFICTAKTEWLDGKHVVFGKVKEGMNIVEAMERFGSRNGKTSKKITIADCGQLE
assay-details: Ras-Raf disruption / FRET / MOA assay (BRAF RBD)
Assay type: biochemical
test-settings: NRAS G12C; read-out: NRAS G12C FRET data IC50
Text: Disruption of […] Ras-binding Domain (BRAF^RBD) Interaction with K-Ras by Compounds of the Invention (also Called a FRET Assay or an MOA Assay) Note—The following protocol describes a procedure for monitoring disruption of K-Ras G12C (GMP-PNP) binding to BRAF^RBD by a compound of the invention. This protocol may also be executed substituting other Ras proteins or nucleotides, such as K-Ras G12D and K-Ras G13D. […]
Recorded IC50 values for a group of compounds are listed next.

CCn1c(-c2cccnc2[C@H](C)OC)c2c3cc(ccc31)-c1cc(O)cc(c1)C[C@H](NC(=O)[C@H](C(C)C)N(C)C(=O)[C@H]1CCN(C(=O)[C@@H]3N[C@@H]3C3CC3)C1)C(=O)N1CCC[C@H](N1)C(=O)OCC(C)(C)C2 (atropisomer, axis not shown) | < 10 nM

Observed IC50 on NRAS G12C (Homo sapiens, UniProt P01111+P62937, G12C) for CCn1c(-c2cccnc2[C@H](C)OC)c2c3cc(ccc31)-c1cc(O)cc(c1)C[C@H](NC(=O)[C@H](C(C)C)N(C)C(=O)[C@H]1C[C@H]3CC[C@@H](C1)N3C(=O)[C@H]1CN1)C(=O)N1CCC[C@H](N1)C(=O)OCC(C)(C)C2 (atropisomer, axis not shown) , please. 10 to 100 nM

###

system-tested: NRAS Q61K (Homo sapiens, UniProt P01111+P62937, Q61K)
Sequence (P01111 whole entry Q61K, one chain of several): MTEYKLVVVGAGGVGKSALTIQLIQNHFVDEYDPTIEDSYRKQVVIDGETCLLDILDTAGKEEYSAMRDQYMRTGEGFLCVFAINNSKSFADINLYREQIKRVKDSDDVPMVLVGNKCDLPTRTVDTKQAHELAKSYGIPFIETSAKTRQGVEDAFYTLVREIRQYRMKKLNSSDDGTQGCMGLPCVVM
assay-details: Disruption of BRAF RBD interaction with Ras (FRET / MOA assay, with Cyclophilin A)
Type: biochemical
test-settings: NRAS Q61K; read-out: NRAS Q61K FRET data IC50
Recorded IC50 values for a group of compounds are listed next.

C=CC(=O)N1CC[C@H](C(=O)N(C)[C@H](C(=O)N[C@H]2Cc3cc(O)cc(c3)-c3ccc4c(c3)c(c(-c3cc(F)cnc3COC)n4CC)CC(C)(C)COC(=O)[C@@H]3CCCN(N3)C2=O)C(C)C)C1 | 100 to 1000 nM
CCn1c(-c2cccnc2[C@H](C)OC)c2c3cc(ccc31)N1CCC[C@@H](C[C@H](NC(=O)[C@H](C(C)C)N(C)C(=O)C3(F)CCN(C(=O)C#CC(C)(C)N(C)C)CC3)C(=O)N3CCCC(N3)C(=O)OCC(C)(C)C2)C1 | > 10000 nM
CCn1c(-c2cccnc2[C@H](C)OC)c2c3cc(ccc31)-c1csc(n1)C[C@H](NC(=O)[C@H](C(C)C)N(C)C(=O)N1CC[C@]13CCCNC3)C(=O)N1CCC[C@H](N1)C(=O)OCC(C)(C)C2 | 100 to 1000 nM

// below: IC50 requested for another compound
# lookup: IC50 of CCn1c(-c2cccnc2[C@H](C)OC)c2c3cc(ccc31)-c1csc(n1)C[C@H](NC(=O)[C@H](C(C)C)N(C)C(=O)N1CCC[C@@H](N(C)C)C1)C(=O)N1CCC[C@H](N1)C(=O)OCC(C)(C)C2 (atropisomer, axis not shown) 10 to 100 nM

###

Recorded IC50 values for a group of compounds are listed next.
system-tested: KRAS Q61H (Homo sapiens, UniProt P01116+P62937, Q61H)
Sequence (P01116 1-169 isoform P01116-2 Q61H limits assumed, one chain of several): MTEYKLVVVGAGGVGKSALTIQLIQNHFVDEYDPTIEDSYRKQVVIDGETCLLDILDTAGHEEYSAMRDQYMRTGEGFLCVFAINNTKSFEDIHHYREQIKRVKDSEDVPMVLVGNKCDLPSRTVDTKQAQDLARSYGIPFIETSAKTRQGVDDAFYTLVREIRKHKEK
assay-details: Disruption of BRAF RBD interaction with Ras (FRET / MOA assay, with Cyclophilin A)
Assay type: biochemical
test-settings: KRAS Q61H; read-out: KRAS Q61H FRET data IC50

# lookup: IC50 of CCn1c(-c2cccnc2[C@H](C)OC)c2c3cc(ccc31)-c1cc(O)cc(c1)C[C@H](NC(=O)[C@H](C(C)C)N(C)C(=O)C1CCc3ccccc3N1)C(=O)N1CCC[C@H](N1)C(=O)OCC(C)(C)C2 (some centres unmarked) 10 to 100 nM

# lookup: IC50 of `CCn1c(-c2cccnc2[C@H](C)OC)c2c3cc(ccc31)-c1cc(O)cc(c1)C[C@H](NC(=O)[C@H](C(C)C)N(C)C(=O)[C@H]1CCN(C(=O)OC3COC3)C1)C(=O)N1CCC[C@H](N1)C(=O)OCC(C)(C)C2` 10 to 100 nM

# lookup: IC50 of CCn1c(-c2cccnc2[C@H](C)OC)c2c3cc(ccc31)-c1csc(n1)C[C@H](NC(=O)[C@H](C(C)C)N(C)C(=O)N1CCC[C@@H](N(C)C)C1)C(=O)N1CCC[C@H](N1)C(=O)OCC(C)(C)C2 (atropisomer, axis not shown) 10 to 100 nM

# lookup: IC50 of `CCn1c(-c2cccnc2[C@H](C)OC)c2c3cc(ccc31)-c1csc(n1)C[C@H](NC(=O)[C@H](C(C)C)N(C)C(=O)N1[C@H](C)CN(C)C[C@H]1C)C(=O)N1CCC[C@H](N1)C(=O)OCC(C)(C)C2` 10 to 100 nM

###

system-tested: NRAS G12C (Homo sapiens, UniProt P01111+P62937, G12C)
assay-details: Ras-Raf disruption / FRET / MOA assay (BRAF RBD)
Format: biochemical
test-settings: NRAS G12C FRET data IC50, NRAS G12C
endpoint-name: IC50

Worked examples follow.
CCn1c(-c2cccnc2[C@H](C)OC)c2c3cc(ccc31)-c1cc(O)cc(c1)C[C@H](NC(=O)[C@H](C(C)C)N(C)C(=O)CN(C)C(=O)[C@@H]1CN1CC1(C)COC1)C(=O)N1CCC[C@H](N1)C(=O)OCC(C)(C)C2 (stereo partly shown) | < 10 nM
CCn1c(-c2cccnc2[C@H](C)OC)c2c3cc(ccc31)-c1cc(O)cc(c1)C[C@H](NC(=O)[C@H](C1CCCC1)N(C)C(=O)[C@H](C)N(C)C(=O)[C@@H]1N[C@@H]1C1CC1)C(=O)N1CCC[C@H](N1)C(=O)OCC(C)(C)C2 | 10 to 100 nM
CCn1c(-c2cccnc2[C@H](C)OC)c2c3cc(ccc31)-c1cc(O)cc(c1)C[C@H](NC(=O)[C@H](C(C)C)N(C)C(=O)CN(C)C(=O)[C@@H]1N[C@H]1C(F)(F)F)C(=O)N1CCC[C@H](N1)C(=O)OCC(C)(C)C2 | 10 to 100 nM
CCn1c(-c2cccnc2[C@H](C)OC)c2c3cc(ccc31)-c1cc(O)cc(c1)C[C@H](NC(=O)[C@H](C(C)C)N(C)C(=O)CNC(=O)[C@H]1CN1)C(=O)N1CCC[C@H](N1)C(=O)OCC(C)(C)C2 | < 10 nM

// below: IC50 requested for another molecule
# lookup: IC50 of CCn1c(-c2cccnc2[C@H](C)OC)c2c3cc(ccc31)-c1cc(O)cc(c1)C[C@H](NC(=O)[C@H](C1CCCC1)N(C)C(=O)CN(C)C(=O)[C@@H]1N[C@@H]1C1(C#N)CC1)C(=O)N1CCC[C@H](N1)C(=O)OCC(C)(C)C2 (single isomer, unassigned) 10 to 100 nM

###

Recorded IC50 values for a group of molecules are listed next.
system-tested: NRAS WT (Homo sapiens, UniProt P01111+P62937)
Sequence (P01111 whole entry): as the sequence (P01111 whole entry G12C) above, with C12G counted along it
Sequence (P62937 whole entry): as the sequence (P62937 whole entry) above
assay-details: Disruption of BRAF RBD interaction with Ras (FRET / MOA assay, with Cyclophilin A)
Format: biochemical
test-settings: NRAS WT; read-out: NRAS WT FRET data IC50
Excerpt: Disruption of B-Raf Ras-Binding Domain (BRAF^RBD) Interaction with K-Ras by Compounds of the Invention (Also Called a FRET Assay or an MOA Assay) Note—The following protocol describes a procedure for monitoring disruption of K-Ras G12C (GMP-PNP) binding to BRAF^RBD by a compound of the invention. This protocol may also be executed substituting other Ras proteins or nucleotides. […]

Worked examples follow.
CCn1c(-c2cccnc2[C@H](C)OC)c2c3cc(ccc31)-c1cc(O)cc(c1)C[C@H](NC(=O)[C@H](C(C)C)N(C)C(=O)C1Cc3cccnc3C1)C(=O)N1CCC[C@H](N1)C(=O)OCC(C)(C)C2 (some centres unmarked) | 10 to 100 nM
CCn1c(-c2cc(N3CCN(C)CC3)cnc2[C@H](C)OC)c2c3cc(ccc31)-c1csc(n1)C[C@H](NC(=O)[C@H](C(C)C)N(C)C(=O)N1CC(N(C)C)C1)C(=O)N1CCC[C@H](N1)C(=O)OCC(C)(C)C2 (atropisomer, axis not shown) | 10 to 100 nM
CCn1c(-c2cccnc2[C@H](C)OC)c2c3cc(ccc31)-c1csc(n1)C[C@H](NC(=O)[C@H](C(C)C)N(C)C(=O)N1CCOC[C@@H]1CN(C)C)C(=O)N1CCC[C@H](N1)C(=O)OCC(C)(C)C2 | 1000 to 10000 nM
CCn1c(-c2cccnc2[C@H](C)OC)c2c3cc(ccc31)-c1csc(n1)C[C@H](NC(=O)[C@H](C(C)C)N(C)C(=O)N1CCN(C(=O)CN(C)C)CC1)C(=O)N1CCC[C@H](N1)C(=O)OCC(C)(C)C2 (atropisomer, axis not shown) | 10 to 100 nM

# lookup: IC50 of `CCn1c(-c2cnccc2COC)c2c3cc(ccc31)-c1cc(O)cc(c1)C[C@H](NC(=O)[C@H](C(C)C)N(C)C(=O)c1ncco1)C(=O)N1CCC[C@H](N1)C(=O)OCC(C)(C)C2` 100 to 1000 nM

# lookup: IC50 of CCn1c(-c2cc(C3CCN(C)CC3)cnc2[C@H](C)OC)c2c3cc(ccc31)-c1csc(n1)C[C@H](NC(=O)[C@H](C(C)C)N(C)C(=O)N1CCOCC1)C(=O)N1CCC[C@H](N1)C(=O)OCC(C)(C)C2 (atropisomer, axis not shown) 10 to 100 nM

# lookup: IC50 of CCn1c(-c2cccnc2[C@H](C)OC)c2c3cc(ccc31)-c1csc(n1)C[C@H](NC(=O)[C@H](C(C)C)N(C)C(=O)N1CC3CCN(C)CC31)C(=O)N1CCC[C@H](N1)C(=O)OCC(C)(C)C2 (some centres unmarked) 1000 to 10000 nM

# lookup: IC50 of CCn1c(-c2cccnc2[C@H](C)OC)c2c3cc(ccc31)-c1csc(n1)C[C@H](NC(=O)[C@H](C(C)C)N(C)C(=O)N1C[C@@H]3CN(C)C[C@@H]31)C(=O)N1CCC[C@H](N1)C(=O)OCC(C)(C)C2 (atropisomer, axis not shown) 1000 to 10000 nM

# lookup: IC50 of CCn1c(-c2cccnc2[C@H](C)OC)c2c3cc(ccc31)-c1csc(n1)C[C@H](NC(=O)[C@H](C(C)C)N(C)C(=O)N1CC3(CC(N4CCOCC4)C3)C1)C(=O)N1CCC[C@H](N1)C(=O)OCC(C)(C)C2 (atropisomer, axis not shown) 100 to 1000 nM

# lookup: IC50 of `CCn1c(-c2cccnc2[C@H](C)OC)c2c3cc(ccc31)-c1csc(n1)C[C@H](NC(=O)[C@H]1CCO1)C(=O)N1CCC[C@H](N1)C(=O)OCC(C)(C)C2` 100 to 1000 nM

# lookup: IC50 of CCn1c(-c2cc(N3CCN(C)CC3)cnc2[C@H](C)OC)c2c3cc(ccc31)-c1csc(n1)C[C@H](NC(=O)[C@H](C1CCCC1)N(C)C(=O)N(C)C)C(=O)N1CCC[C@H](N1)C(=O)OCC(C)(C)C2 (atropisomer, axis not shown) 10 to 100 nM

# lookup: IC50 of `CCn1c(-c2cccnc2[C@H](C)OC)c2c3cc(ccc31)-c1cc(O)cc(c1)C[C@H](NC(=O)[C@H](C(C)C)N(C)C(=O)[C@H]1CCN(C(=O)OC3COC3)C1)C(=O)N1CCC[C@H](N1)C(=O)OCC(C)(C)C2` 10 to 100 nM
